- SYSTEM: T1, 4H953-bA
- T1 chain: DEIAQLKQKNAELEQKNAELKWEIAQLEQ
- ASSAY: two-hybrid library CCNG1;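 note: natural log of median RNA to DNA barcode read ratio; higher means stronger binding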
MEASURED_ENDPOINT: interaction score
One number for each entry.

Provide the reported interaction score of each entry below, same order.
1. DKNAQLKQENAELKQEIAELEWKIAQLKQ [4H3782-bA]
2. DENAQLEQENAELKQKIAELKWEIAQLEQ [4H1257-bA]
3. DKNAQLKQKIAELEQEIAELKWKNAQLEQ [4H3855-bA]

a:
-1.07
-1.53
-1.69
